Sourced from PubChem BioAssay

# ASSAY_NAME: FRG1 promoter luciferase signal modulators, primary screen, FRG1 inhibition for FSHD, cell-based, C2C12 myotubes, firefly/Renilla luciferase, luminescence (AID 1084)
# CONDITIONS_USED: higher = more signal, called active from +8 up or from −8 down
Activity calls are given as the source filed them.

{"columns": ["COMPOUND", "z-score"],
 "data": [
  ["CC(C)OC(=O)C=C1C[C@@H](c2ccc(C#N)cc2)O[C@@H](c2ccc(C#N)cc2)O1", "0.0509 (inactive)"],
  ["Cc1cc2c(nc1C)CCCN2CC(O)CN1CCN(C)CC1 (centres undefined)", "-0.323 (inactive)"],
  ["C=C(CCCC)C(=O)CC[C@@H](OC(C)=O)c1cccc(OCCO)c1", "-3.56 (inactive)"],
  ["CO[C@@H]1COC(=O)CC=C[C@@H](C)[C@H](OC)COC(=O)[C@H](COCc2ccccc2)NC(=O)CC=C[C@H]1C", "-0.886 (inactive)"],
  ["CO[C@@H]1COC(=O)CC=C[C@@H](C)[C@@H]2C=C[C@H](O)[C@@H](COC(=O)[C@H](C)NC(=O)CC=C[C@H]1C)O2", "0.361 (inactive)"],
  ["CC(=O)C[C@H](O)[C@@H](NC(=O)OC(C)(C)C)C(C)C", "0.178 (inactive)"],
  ["CC(C)(C)N1CC=CC23O[C@@H]4C=CCCOC(=O)C4[C@H]2C(=O)N(CCCCCO)[C@@H]3C1=O (some centres undefined)", "-0.85 (inactive)"],
  ["CCOC(=O)[C@H](CC(C)C)NC(=O)CCC1CC(OC(=O)NCc2cccc3ccccc23)CC2(CCCC(COC(=O)NCCN3CCOCC3)O2)O1 (some centres undefined)", "0.986 (inactive)"],
  ["COc1ccc(OC[C@H]2Cc3c(-c4ccccc4)nc4c(c3CO2)CN(CCOc2ccccc2)CC4)cc1", "0.114 (inactive)"],
  ["O=C1[C@H]2[C@H]3[C@H](O)[C@H](O)CC(=NOCc4ccccc4)[C@H]3CC[C@H]2C(=O)N1c1cccc(Oc2ccccc2)c1", "0.335 (inactive)"],
  ["CC(=O)OC[C@H]1O[C@@H](ON=C[C@@H](C)[C@H](OCc2ccccc2)C(C)C)[C@H](OC(C)=O)[C@@H](OC(C)=O)[C@@H]1OC(C)=O", "-0.703 (inactive)"],
  ["COCCCNC(=O)[C@]1(Cc2ccccc2)N=C(c2ccc(OCCCO)cc2)O[C@@H]1c1ccccc1", "-1.33 (inactive)"],
  ["COC(=O)[C@]1(CO)N=C(c2ccc(OCCCO)cc2)O[C@@H]1c1ccccc1N=[N+]=[N-]", "2.29 (inactive)"],
  ["CC(CCN1CCCCc2nc(C)c(C)cc21)=NOC(C)CN1CCCc2nc(C)c(C)cc21 (centres undefined)", "1.28 (inactive)"]
]}
